- System: Plasmodium falciparum Sir2 (PF13_0152, Sir2A)
- Assay protocol: pfSir2 binders on small-molecule microarrays, primary screen, biochemical, small-molecule microarray, 635 nm fluorescence (AID 1098);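 further: score merges spot fluorescence intensity with its signal-to-noise ratio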
- Applied conditions: small-molecule microarray binding, fluorescence 635 nm; higher = more signal
Can you tell me composite z-score for the items I'm about to list?
Please reply with the number alone, leaving off any unit.

Please give the measured composite z-score for this compound: "CCc1cc2c(nc1CC)CCN(CCC(C)=NO[C@@H]1O[C@H](COC(C)=O)[C@@H](OC(C)=O)[C@H](OC(C)=O)[C@H]1OC(C)=O)C2"
0.8

Please give the measured composite z-score for this compound: "CCOC(=O)NN=C1C[C@@H](O)[C@@H](O)[C@@H]2[C@@H]3C(=O)N(c4ccc(F)cc4F)C(=O)[C@@H]3CC[C@H]12"
-0.304

Please give the measured composite z-score for this compound: CC(CCN1CCc2nc(-c3ccccc3)c(-c3ccccc3)cc2C1)=NOC(C)CN1CCCc2nc(C)c(C)cc21 (stereo not given)
0.934

Please give the measured composite z-score for this compound: "O=C1[C@H]2[C@H]3[C@H](O)[C@H](O)CC(=NOC[C@@H](O)COCc4ccco4)[C@@H]3CC[C@H]2C(=O)N1C1CCCCC1"
0.225

Please give the measured composite z-score for this compound: CCc1cc2c(nc1CC)CCN(CCC(C)=NOC(C)CN1CCCCc3nc(C)c(C)cc31)C2 (stereo not given)
0.526

Please give the measured composite z-score for this compound: "CO[C@@H]1C=CCC(=O)N[C@@H](C)C(=O)OC[C@@H](NS(=O)(=O)c2ccc(C)cc2)[C@H](C)C=CCC(=O)OC[C@H]1C"
-0.401

Please give the measured composite z-score for this compound: "CO[C@H]1COC(=O)CCC[C@H](C)[C@@H](OC)COC(=O)CC=C[C@@H]1C"
0.981

Please give the measured composite z-score for this compound: "CC(C)CON=C1C[C@@H](O)[C@@H](O)[C@@H]2[C@@H]3C(=O)N(C(C)(C)C)C(=O)[C@@H]3CC[C@@H]12"
1.08

Please give the measured composite z-score for this compound: CCOC(=O)[C@H](CC(C)C)NC(=O)CCC1CC(OC(=O)NCc2ccc3c(c2)OCO3)CC2(CCCC(COC(=O)NCCOC)O2)O1 (stereo not given in full)
0.622

Please give the measured composite z-score for this compound: O=C(NCCC[N+]1=CC=NC1c1ccccc1)N1CCCc2nc(-c3ccc(Br)cc3)ccc21 (stereo not given)
1.02

Please give the measured composite z-score for this compound: "C#CCCCON=C1[C@H]2CCn3c(=O)n(Cc4cc5c(cc4Cl)OCO5)c(=O)n3[C@H]2[C@H](O)[C@@H]2O[C@H]12"
0.216

Please give the measured composite z-score for this compound: "CCOC(=O)CCN1C(=O)[C@H]2[C@H]3[C@H](O)[C@H](O)CC(=O)[C@@H]3CC[C@H]2C1=O"
0.414

Please give the measured composite z-score for this compound: COC(=O)[C@H](C)NC(=O)CCC1CC(OC(=O)NCCc2ccc(F)cc2)CC2(CCCC(COC(=O)NCc3ccccc3)O2)O1 (stereo not given in full)
0.768

Please give the measured composite z-score for this compound: COC(=O)[C@H](C)NC(=O)CCC1CC(OC(=O)NCc2ccc3c(c2)OCO3)CC2(CCCC(COC(=O)NCCCN3CCCC3=O)O2)O1 (stereo not given in full)
0.842

Please give the measured composite z-score for this compound: "CC(C)CON=C1C[C@@H](O)[C@@H](O)[C@@H]2[C@@H]3C(=O)N(c4ccc(F)cc4F)C(=O)[C@@H]3CC[C@@H]12"
0.622

Please give the measured composite z-score for this compound: "CCOC(=O)NN=C1C[C@@H](O)[C@@H](O)[C@@H]2[C@@H]3C(=O)N(C[C@@H]4CCCO4)C(=O)[C@@H]3CC[C@H]12"
0.348

Please give the measured composite z-score for this compound: CC(=O)OC[C@H]1O[C@H](CC=NOC(C)CN2CCCc3nc(C)c(C)cc32)C=C[C@@H]1OC(C)=O (stereo not given in full)
0.104

Please give the measured composite z-score for this compound: "COC(=O)[C@@H]1CC[C@H](C)[C@@H](c2ccc(C)cc2)N1C(=O)c1ccc(C=NOC[C@@H](O)[C@H]2O[C@@H]3OC(C)(C)O[C@@H]3[C@H]2O)cc1"
0.402

Please give the measured composite z-score for this compound: "C[C@@H]1CC[C@H]2C(=O)O[C@@H](COc3ccc(C(C)(C)C)cc3)CN2[C@H]1c1ccc(Br)cc1"
0.418

Please give the measured composite z-score for this compound: "COc1cccc([C@H]2Oc3ccc(OC)cc3C(=NO[C@@H](C)c3cc(-c4c(C)cc(C)cc4C)no3)[C@@H]2O)c1"
0.288

Please give the measured composite z-score for this compound: "CSCC[C@@H]1NC(=O)CC=C[C@@H](C)COC(=O)[C@H](C)COC1=O"
0.926

Please give the measured composite z-score for this compound: "CC(CCN1CCCCc2nc(C)c(C)cc21)=NO[C@H](C)c1cn([C@@H]2COC[C@H]2O)nn1"
0.742

Please give the measured composite z-score for this compound: "CON=C1c2cc(OC)ccc2O[C@H](c2cccc(OC)c2)[C@H]1O"
0.386

Please give the measured composite z-score for this compound: "O=C1C=C[C@@H](O)[C@@H]2[C@@H]3C(=O)N(c4cccc(Oc5ccccc5)c4)C(=O)[C@@H]3CC[C@@H]12"
0.378

Please give the measured composite z-score for this compound: "C[C@H]1CC[C@H]2C(=O)O[C@H](CO)CN2[C@@H]1c1ccc(Br)cc1"
-0.233

Please give the measured composite z-score for this compound: "CC(CCC(=O)OC[C@H]1O[C@H](C#Cc2ccccc2)C=C[C@@H]1Oc1ccc(C)cc1)=NOC[C@@H](C)[C@H](OCc1ccccc1)C(C)C"
-1.11

Please give the measured composite z-score for this compound: CCOC(=O)[C@H](Cc1ccccc1)NC(=O)CCC1CC(OC(=O)NCc2cccc3ccccc23)CC2(CCCC(COC(=O)NCC3CCCCC3)O2)O1 (stereo not given in full)
0.889

Please give the measured composite z-score for this compound: "CCOC(=O)CCN1C(=O)[C@H]2[C@H]3[C@H](O)[C@H](O)CC(=NOCC(C)C)[C@@H]3CC[C@H]2C1=O"
0.816

Please give the measured composite z-score for this compound: "CC(C)CON=C1C[C@@H](O)[C@@H](O)[C@@H]2[C@@H]3C(=O)N(Cc4ccccc4)C(=O)[C@@H]3CC[C@H]12"
0.296

Please give the measured composite z-score for this compound: "C=CC[C@@H]1C=C[C@H](ON=C(C)CCN2CCCCc3nc(C)c(C)cc32)[C@@H](CO)O1"
1.14

Cited source: PubChem BioAssay
